- target.or.system: UniProt:O14965
- Sequence (O14965 whole entry, the tested form may be a part): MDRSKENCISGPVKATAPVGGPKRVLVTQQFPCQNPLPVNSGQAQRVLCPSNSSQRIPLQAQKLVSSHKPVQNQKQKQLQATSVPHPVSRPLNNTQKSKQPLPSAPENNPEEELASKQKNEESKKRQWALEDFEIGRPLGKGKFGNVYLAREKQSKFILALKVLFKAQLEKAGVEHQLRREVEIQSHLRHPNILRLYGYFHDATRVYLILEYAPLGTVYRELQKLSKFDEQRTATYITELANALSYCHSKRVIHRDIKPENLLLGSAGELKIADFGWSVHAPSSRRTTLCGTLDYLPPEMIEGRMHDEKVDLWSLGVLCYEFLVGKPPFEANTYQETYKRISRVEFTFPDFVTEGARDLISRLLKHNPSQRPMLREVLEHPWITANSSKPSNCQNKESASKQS
- method: Inhibition of recombinant human Aurora A (1 to 403 residues) expressed in Escherichia coli using STK-substrate 2-biotin as substrate incubated for 40 mins in presence of 24 uM ATP by HTRF assay
metric: IC50 (nM)

INSERT INTO assay_data (molecule_smiles, data_value) VALUES
  ('C=CC(=O)Nc1ccc(-c2nc(Nc3cc(C)[nH]n3)c3ccc(N4CCN(C)CC4)cc3n2)cc1', 8.34);

###

Entries and their measured pIC50 follow.
- Test system: A549
- method: Antiproliferative activity against human A549 cells assessed as inhibition of cell proliferation incubated for 48 hrs by CCK-8 assay
- Type: functional, cell-based
- assay.context: A549, 48 h
pIC50: −log10 of the molar value.
metric: pIC50

INSERT INTO measurements (molecule_smiles, data_value) VALUES
  ('Cc1cc(Nc2nc(-c3ccc(O)cc3)nc3cc(N4CCN(C)CC4)ccc23)n[nH]1', 5.32),
  ('Cc1cc(Nc2nc(-c3cccc(N)c3)nc3cc(N4CCN(C)CC4)ccc23)n[nH]1', 5.69),
  ('Cc1cc(Nc2cc(N3CCN(C)CC3)nc(/C=C/c3ccccc3)n2)n[nH]1', 5.58),
  ('C=CC(=O)Nc1ccccc1-c1nc(Nc2cc(C)[nH]n2)c2ccc(N3CCN(C)CC3)cc2n1', 4.71),
  ('Cc1cc(Nc2nc(-c3ccc(N)cc3)nc3cc(N4CCOCC4)ccc23)n[nH]1', 5.79),
  ('Cc1cc(Nc2nc(-c3ccccc3O)nc3cc(N4CCN(C)CC4)ccc23)n[nH]1', 5.57),
  ('CCC(=O)Nc1ccc(-c2nc(Nc3cc(C)[nH]n3)c3ccc(N4CCN(C)CC4)cc3n2)cc1', 5.93),
  ('Cc1cc(Nc2nc(-c3cccc(O)c3)nc3cc(N4CCN(C)CC4)ccc23)n[nH]1', 5.67),
  ('C=CC(=O)Nc1ccc(-c2nc(Nc3cc(C)[nH]n3)c3ccc(N4CCOCC4)cc3n2)cc1', 6.59),
  ('Cc1cc(Nc2nc(-c3ccccc3N)nc3cc(N4CCN(C)CC4)ccc23)n[nH]1', 5.95),
  ('Cc1cc(Nc2nc(-c3ccccc3)nc3cc(N4CCN(C)CC4)ccc23)n[nH]1', 5.84),
  ('C=CC(=O)Nc1ccc(-c2nc(Nc3cc(C)[nH]n3)c3ccc(N4CCN(C)CC4)cc3n2)cc1', 5.51),
  ('C=CC(=O)Nc1cc(-c2nc(Nc3cc(C)[nH]n3)c3ccc(N4CCN(C)CC4)cc3n2)ccc1C', 6.51),
  ('Cc1cc(Nc2nc(-c3ccc(N)cc3)nc3cc(N4CCN(C)CC4)ccc23)n[nH]1', 5.39),
  ('C=CC(=O)Nc1cccc(-c2nc(Nc3cc(C)[nH]n3)c3ccc(N4CCOCC4)cc3n2)c1', 6.07),
  ('Cc1cc(Nc2nc(-c3ccc(OS(=O)(=O)F)cc3)nc3cc(N4CCN(C)CC4)ccc23)n[nH]1', 5.94),
  ('C=CC(=O)Nc1cccc(-c2nc(Nc3cc(C)[nH]n3)c3ccc(N4CCN(C)CC4)cc3n2)c1', 5.49),
  ('Cc1cc(Nc2nc(-c3cccc(N)c3)nc3cc(N4CCOCC4)ccc23)n[nH]1', 5.75);
